# subject of test: IRAK4 (Homo sapiens)
# Construct: Degradation of IRAK4 in OCI-LY10 was quantitatively measured using Meso Scale Discovery technology; endogenous in cells; host or cells: OCI-LY10
# assay comment: IRAK4 MSD Degradation in OCI-LY10
# Assay type: cell-based
# test context: OCI-LY10 cells, 24 hrs incubation, MSD; read-out: IRAK4 degradation in OCI-LY10 at 24 hrs: DC50
metric name: DC50

Input line: Specify DC50 for CC(C)(O)c1cc2nn([C@H]3CC[C@H](CNCCCCCCCNc4cccc5c4C(=O)N(C4CCC(=O)NC4=O)C5=O)CC3)cc2cc1NC(=O)c1cccc(C(F)(F)F)n1 (some centres unmarked) , system IRAK4 (Homo sapiens).
Output line: 10 to 100 nM

Input line: Specify DC50 for Cn1c(=O)n(C2CCC(=O)NC2=O)c2cccc([C@H]3C[C@H](O[C@@H]4CCN(C[C@H]5CC[C@H](n6cc(NC(=O)c7cnn8ccc(N9C[C@H]%10C[C@@H]9CO%10)nc78)c(C(F)F)n6)CC5)C[C@H]4F)C3)c21 (some centres unmarked) , system IRAK4 (Homo sapiens).
Output line: > 200 nM

Input line: Specify DC50 for Cn1c(=O)n(C2CCC(=O)NC2=O)c2cccc(C3CCN(C[C@H]4CC[C@H](n5cc6cc(NC(=O)c7cccc(C(F)(F)F)n7)c(F)cc6n5)CC4)CC3F)c21 (some centres unmarked) , system IRAK4 (Homo sapiens).
Output line: 10 to 100 nM

Input line: Specify DC50 for COc1cc2nn([C@H]3CC[C@H](CN4CC(c5cncc6c5n(C)c(=O)n6C5CCC(=O)NC5=O)C4)CC3)cc2cc1NC(=O)c1cccc(C(C)(C)F)n1 (some centres unmarked) , system IRAK4 (Homo sapiens).
Output line: > 200 nM

Input line: Specify DC50 for Cn1c(=O)n(C2CCC(=O)NC2=O)c2cccc([C@@H]3CCN(C[C@H]4CC[C@H](n5cc6cc(NC(=O)c7cccc(C(F)F)n7)c(C(C)(C)O)cc6n5)CC4)C[C@H]3F)c21 (some centres unmarked) , system IRAK4 (Homo sapiens).
Output line: < 10 nM

----------
# subject of test: IRAK4 (Homo sapiens, UniProt Q9NWZ3)
# Construct: Degradation of IRAK4 in OCI-LY10 was quantitatively measured using Meso Scale Discovery technology; endogenous in cells; host or cells: OCI-LY10
# Sequence (Q9NWZ3 whole entry): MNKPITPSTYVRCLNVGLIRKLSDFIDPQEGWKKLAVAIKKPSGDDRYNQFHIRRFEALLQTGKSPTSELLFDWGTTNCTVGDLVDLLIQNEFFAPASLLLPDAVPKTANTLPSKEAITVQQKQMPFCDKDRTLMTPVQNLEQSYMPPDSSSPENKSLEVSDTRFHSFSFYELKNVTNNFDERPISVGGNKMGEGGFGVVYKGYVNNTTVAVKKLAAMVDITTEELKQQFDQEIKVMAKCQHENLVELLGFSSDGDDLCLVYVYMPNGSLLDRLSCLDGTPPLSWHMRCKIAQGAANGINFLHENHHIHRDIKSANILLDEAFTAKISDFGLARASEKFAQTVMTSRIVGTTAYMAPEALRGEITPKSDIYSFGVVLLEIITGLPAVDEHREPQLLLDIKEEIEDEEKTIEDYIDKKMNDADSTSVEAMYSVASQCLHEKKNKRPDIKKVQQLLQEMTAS
# assay comment: IRAK4 MSD Degradation in OCI-LY10
# Format: cell-based
# test context: OCI-LY10 cells, 4 hrs incubation, MSD; read-out: IRAK4 degradation in OCI-LY10 at 4 hrs: DC50
# Description: Degradation of IRAK4 in OCI-LY10 was quantitatively measured using Meso Scale Discovery technology. […] Compounds were then added to the assay plates with a final top concentration of 1 to 10 μM in a 1:3 dilution series with total of 8 doses. […] The assay plates were then incubated at room temperature for 1 hour, washed 3 times with 150 μL/well TBST buffer, and 150 μL/well MSD reading buffer (Meso Scale Discovery catalog number R92TC-2) was added. […]
metric name: DC50

Input line: Give DC50 for the following compound: CN1CCN(c2ccn3ncc(C(=O)Nc4cn([C@H]5CC[C@H](CN6CCN(CC#Cc7cccc8c7n(C)c(=O)n8C7CCC(=O)NC7=O)CC6)CC5)nc4C(F)F)c3n2)CC1C(F)F (stereo partly drawn) [I-411]
Output line: > 200 nM

Input line: Give DC50 for the following compound: COc1cc2nn([C@H]3CC[C@H](CN4CCC(c5cccc6c5n(C)c(=O)n6C5CCC(=O)NC5=O)CC4)CC3)cc2cc1NC(=O)c1cncc(F)c1 (stereo partly drawn) [I-439]
Output line: < 10 nM

Input line: Give DC50 for the following compound: Cn1c(=O)n(C2CCC(=O)NC2=O)c2cccc(C#CCCOC3CCN(C[C@H]4CC[C@H](n5cc(NC(=O)c6cnn7ccc(N8C[C@H]9C[C@@H]8CO9)nc67)c(C(F)F)n5)CC4)CC3)c21 (stereo partly drawn) [I-16]
Output line: < 10 nM

----------
# subject of test: IRAK4 (Homo sapiens)
# Construct: Degradation of IRAK4 in OCI-LY10 was quantitatively measured using Meso Scale Discovery technology; endogenous in cells; host or cells: OCI-LY10
# assay comment: IRAK4 MSD Degradation in OCI-LY10
# Format: cell-based
# test context: OCI-LY10 cells, 24 hrs incubation, MSD; read-out: IRAK4 degradation in OCI-LY10 at 24 hrs: DC50
Please provide measured DC50 for the entries that follow.

Input line: Specify DC50 for Cn1c(=O)n(C2CCC(=O)NC2=O)c2cccc(C3CCN(CC4COC5(C4)CN(C[C@H]4CC[C@H](n6cc(NC(=O)c7cnn8ccc(N9C[C@H]%10C[C@@H]9CO%10)nc78)c(C(F)F)n6)CC4)C5)CC3)c21 (stereo partly shown) [I-664] , system IRAK4 (Homo sapiens).
Output line: > 200 nM

Input line: Specify DC50 for CO[C@H]1CN(c2cccc3c2n(C)c(=O)n3C2CCC(=O)NC2=O)CC[C@@H]1N(C)C[C@H]1CC[C@H](n2cc3cc(NC(=O)c4cccc(C(F)(F)F)n4)ccc3n2)CC1 (stereo partly shown) [I-496] , system IRAK4 (Homo sapiens).
Output line: > 200 nM

Input line: Specify DC50 for COc1cc2nn([C@H]3CC[C@H](CN4CCC5(CC4)CC(N(C)c4cccc6c4C(=O)N(C4CCC(=O)NC4=O)C6=O)C5)CC3)cc2cc1NC(=O)c1cccc(C(F)(F)F)n1 (stereo partly shown) [I-141] , system IRAK4 (Homo sapiens).
Output line: 10 to 100 nM

Input line: Specify DC50 for Cn1c(=O)n(C2CCC(=O)NC2=O)c2cccc(OC3CC4(CCN(Cc5ccc(-n6cc(NC(=O)c7cnn8ccc(N9C[C@H]%10C[C@@H]9CO%10)nc78)c(C(F)F)n6)cc5)CC4)C3)c21 (stereo partly shown) [I-401] , system IRAK4 (Homo sapiens).
Output line: > 200 nM

Input line: Specify DC50 for Cn1c(=O)n(C2CCC(=O)NC2=O)c2ccc(C3CCN(C[C@H]4CC[C@H](n5cc6cc(NC(=O)c7cccc(C(F)(F)F)n7)c(C#N)cc6n5)CC4)CC3(F)F)cc21 (stereo partly shown) [I-568] , system IRAK4 (Homo sapiens).
Output line: > 200 nM

Input line: Specify DC50 for Cn1c(=O)n(C2CCC(=O)NC2=O)c2cccc(C#CCN3CCN(C[C@H]4CC[C@H](n5cc(NC(=O)c6cnn7ccc(N8CC(F)(F)C8)nc67)c(C(F)F)n5)CC4)CC3)c21 (stereo partly shown) [I-414] , system IRAK4 (Homo sapiens).
Output line: > 200 nM

Input line: Specify DC50 for Cn1c(=O)n(C2CCC(=O)NC2=O)c2cccc(C#CCN3CCN(C[C@H]4CC[C@H](n5cc(NC(=O)c6cnn7ccc(N8CCC9(CC8)CC9)nc67)c(C(F)F)n5)CC4)CC3)c21 (stereo partly shown) [I-228] , system IRAK4 (Homo sapiens).
Output line: < 10 nM

Input line: Specify DC50 for Cn1c(=O)n(C2CCC(=O)NC2=O)c2cccc(N3CCN(CC[C@H]4CC[C@H](n5cc(NC(=O)c6cnn7cccnc67)c(C(F)F)n5)CC4)CC3)c21 (stereo partly shown) [I-237] , system IRAK4 (Homo sapiens).
Output line: 10 to 100 nM

Input line: Specify DC50 for Cn1c(=O)n(C2CCC(=O)NC2=O)c2cccc(N3CC4(C3)N(C[C@H]3CC[C@H](n5cc6cc(NC(=O)c7cccc(C(F)(F)F)n7)ccc6n5)CC3)CC4(F)F)c21 (stereo partly shown) [I-500] , system IRAK4 (Homo sapiens).
Output line: > 200 nM

Input line: Specify DC50 for C[C@@H]1CN(c2ccn3ncc(C(=O)Nc4cn([C@H]5CC[C@H](CN(C)C6CCN(c7cccc8c7n(C)c(=O)n8C7CCC(=O)NC7=O)CC6)CC5)nc4C(F)F)c3n2)CCO1 (stereo partly shown) [I-428] , system IRAK4 (Homo sapiens).
Output line: < 10 nM

----------
# subject of test: IRAK4 (Homo sapiens, UniProt Q9NWZ3)
# Construct: Degradation of IRAK4 in OCI-LY10 was quantitatively measured using Meso Scale Discovery technology; endogenous in cells; host or cells: OCI-LY10
# assay comment: IRAK4 MSD Degradation in OCI-LY10
# Type: cell-based
# test context: OCI-LY10 cells, 4 hrs incubation, MSD; read-out: IRAK4 degradation in OCI-LY10 at 4 hrs: DC50
metric name: DC50

Input line: Specify DC50 for Cn1c(=O)n(C2CCC(=O)NC2=O)c2ccc(F)c(N3CCN(C[C@H]4CC[C@H](n5cc6cc(NC(=O)c7cccc(C(F)(F)F)n7)ncc6n5)CC4)CC3)c21 (some centres unmarked) , system IRAK4 (Homo sapiens, UniProt Q9NWZ3).
Output line: > 200 nM

Input line: Specify DC50 for O=C1CCC(c2ccc(C#CCOC3CCN(C[C@H]4CC[C@H](n5cc(NC(=O)c6cnn7ccc(N8C[C@H]9C[C@@H]8CO9)nc67)c(C(F)F)n5)CC4)CC3)cc2)C(=O)N1 (some centres unmarked) , system IRAK4 (Homo sapiens, UniProt Q9NWZ3).
Output line: 10 to 100 nM

Input line: Specify DC50 for Cn1c(=O)n(C2CCC(=O)NC2=O)c2cccc(N3CCC(CO[C@H]4CC[C@H](n5cc(NC(=O)c6cnn7cccnc67)c(C(F)F)n5)CC4)CC3)c21 (some centres unmarked) , system IRAK4 (Homo sapiens, UniProt Q9NWZ3).
Output line: > 200 nM

Input line: Specify DC50 for COc1nc(NC(=O)c2cccc(C)n2)cc2cn([C@H]3CC[C@H](CN4CC[C@@H](c5cccc6c5n(C)c(=O)n6C5CCC(=O)NC5=O)[C@H](F)C4)CC3)nc12 (some centres unmarked) , system IRAK4 (Homo sapiens, UniProt Q9NWZ3).
Output line: > 200 nM

Input line: Specify DC50 for Cn1c(=O)n([C@@H]2CCC(=O)NC2=O)c2cccc(C#CCN3CCN(C[C@H]4CC[C@H](n5cc(NC(=O)c6cnn7ccc(N8C[C@H]9C[C@@H]8CO9)nc67)c(C(F)F)n5)CC4)CC3)c21 (single isomer, unassigned) , system IRAK4 (Homo sapiens, UniProt Q9NWZ3).
Output line: 10 to 100 nM
